Just for reference, patent US9168266B2 is where these values come from.

- Tested on: H1355
- Procedure text: MTT cell proliferation assay
- Type: cell-based
- Measurement context: H1355, 72 h
Quantity: pIC50
Please express pIC50 as -log10 of the molar concentration.

Looking up O=C(c1cccc(Cc2n[nH]c(=O)c3ccccc23)c1)N1CCN([N+]([O-])=NOc2ccc([N+](=O)[O-])cc2[N+](=O)[O-])CC1 , I see its pIC50 listed as 4.94

###

- System name: PARP enzyme (Homo sapiens)
- Sequence (P09874 whole entry): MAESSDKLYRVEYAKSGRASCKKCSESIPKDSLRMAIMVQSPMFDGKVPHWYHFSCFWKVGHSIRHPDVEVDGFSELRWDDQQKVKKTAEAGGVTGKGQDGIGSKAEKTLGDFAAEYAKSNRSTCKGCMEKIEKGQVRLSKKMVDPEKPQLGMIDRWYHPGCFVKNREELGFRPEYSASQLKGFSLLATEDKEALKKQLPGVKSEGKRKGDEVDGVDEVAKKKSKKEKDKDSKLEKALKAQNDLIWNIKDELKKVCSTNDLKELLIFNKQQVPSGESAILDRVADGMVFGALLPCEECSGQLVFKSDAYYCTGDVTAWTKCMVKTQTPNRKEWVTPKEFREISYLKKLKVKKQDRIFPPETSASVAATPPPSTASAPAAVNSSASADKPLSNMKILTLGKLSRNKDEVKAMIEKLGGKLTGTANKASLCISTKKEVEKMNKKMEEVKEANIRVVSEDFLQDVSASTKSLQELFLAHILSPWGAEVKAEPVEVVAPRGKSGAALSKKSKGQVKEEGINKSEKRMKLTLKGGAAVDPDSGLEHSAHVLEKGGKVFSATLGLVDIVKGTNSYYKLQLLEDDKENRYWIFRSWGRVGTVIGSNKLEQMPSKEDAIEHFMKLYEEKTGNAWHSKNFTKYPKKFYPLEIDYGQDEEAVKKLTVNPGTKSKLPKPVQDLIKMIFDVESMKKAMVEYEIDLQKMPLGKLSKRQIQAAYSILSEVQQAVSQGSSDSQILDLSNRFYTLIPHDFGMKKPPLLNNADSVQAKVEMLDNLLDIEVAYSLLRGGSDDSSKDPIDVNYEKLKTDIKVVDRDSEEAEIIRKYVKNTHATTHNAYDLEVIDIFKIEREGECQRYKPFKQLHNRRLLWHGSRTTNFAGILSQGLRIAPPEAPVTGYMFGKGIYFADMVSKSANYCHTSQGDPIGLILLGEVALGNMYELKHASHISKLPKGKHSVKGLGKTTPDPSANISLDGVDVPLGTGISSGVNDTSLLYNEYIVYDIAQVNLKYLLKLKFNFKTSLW
Quantity: IC50 (nM)
A number alone suffices; assume nM.

In plain terms, O=C(c1cc(Cc2n[nH]c(=O)c3ccccc23)ccc1F)N1CCN([N+]([O-])=NOc2ccc([N+](=O)[O-])cc2[N+](=O)[O-])CC1 has a documented IC50 of 2.9
